Recorded Efficacy values for a group of compounds are listed next.
# study_system: GABA-A receptor; alpha-1/beta-3/gamma-2 (Homo sapiens) (UniProt P14867+P18507+P28472)
# assay_text: Percentage modulation of submaximal (EC20) response to GABA in Xenopus oocytes expressing human GABA-A alpha-1-beta-3-gamma-2 subunits; further: test concentration or dose not given here
# Assay type: cell-based
# assay_conditions: Oocyte
# number only, unit % dropped from output

Cc1cc(-c2nnc3c4ccccc4c(OCc4cnnn4C)nn23)no1 | -8
Cc1cc(-c2nnc3c4ccccc4c(OCc4cnn(C)n4)nn23)no1 | -5
CNC1=Nc2ccc(Cl)cc2C(c2ccccc2)=[N+]([O-])C1 | 165
Cc1cccc(COc2nn3c(-c4ccsc4)nnc3c3c2C2CCC3CC2)n1 | 17
Cc1cc(-c2nnc3c4ccccc4c(OCc4cn(C)nn4)nn23)no1 | -4
Cc1cc(-c2nnc3c4ccccc4c(OCc4ccccn4)nn23)no1 | -2

Q: Given CCc1c(C(=O)OC)ncc2[nH]c3cc(OC)c(OC)cc3c12 , respond with its Efficacy.
A: -36

Q: Supply measured Efficacy of Cc1cccc(COc2nn3c(-c4nc(C)no4)nnc3c3c2C2CCC3CC2)n1 in your reply.
A: -15

Where do these numbers come from? They come from ChEMBL document CHEMBL1149152.
